Target: zebrafish TRPA1b (zTRPA1b) (Danio rerio, UniProt A0A8M1N2Z4)
Sequence (A0A8M1N2Z4 1-1120): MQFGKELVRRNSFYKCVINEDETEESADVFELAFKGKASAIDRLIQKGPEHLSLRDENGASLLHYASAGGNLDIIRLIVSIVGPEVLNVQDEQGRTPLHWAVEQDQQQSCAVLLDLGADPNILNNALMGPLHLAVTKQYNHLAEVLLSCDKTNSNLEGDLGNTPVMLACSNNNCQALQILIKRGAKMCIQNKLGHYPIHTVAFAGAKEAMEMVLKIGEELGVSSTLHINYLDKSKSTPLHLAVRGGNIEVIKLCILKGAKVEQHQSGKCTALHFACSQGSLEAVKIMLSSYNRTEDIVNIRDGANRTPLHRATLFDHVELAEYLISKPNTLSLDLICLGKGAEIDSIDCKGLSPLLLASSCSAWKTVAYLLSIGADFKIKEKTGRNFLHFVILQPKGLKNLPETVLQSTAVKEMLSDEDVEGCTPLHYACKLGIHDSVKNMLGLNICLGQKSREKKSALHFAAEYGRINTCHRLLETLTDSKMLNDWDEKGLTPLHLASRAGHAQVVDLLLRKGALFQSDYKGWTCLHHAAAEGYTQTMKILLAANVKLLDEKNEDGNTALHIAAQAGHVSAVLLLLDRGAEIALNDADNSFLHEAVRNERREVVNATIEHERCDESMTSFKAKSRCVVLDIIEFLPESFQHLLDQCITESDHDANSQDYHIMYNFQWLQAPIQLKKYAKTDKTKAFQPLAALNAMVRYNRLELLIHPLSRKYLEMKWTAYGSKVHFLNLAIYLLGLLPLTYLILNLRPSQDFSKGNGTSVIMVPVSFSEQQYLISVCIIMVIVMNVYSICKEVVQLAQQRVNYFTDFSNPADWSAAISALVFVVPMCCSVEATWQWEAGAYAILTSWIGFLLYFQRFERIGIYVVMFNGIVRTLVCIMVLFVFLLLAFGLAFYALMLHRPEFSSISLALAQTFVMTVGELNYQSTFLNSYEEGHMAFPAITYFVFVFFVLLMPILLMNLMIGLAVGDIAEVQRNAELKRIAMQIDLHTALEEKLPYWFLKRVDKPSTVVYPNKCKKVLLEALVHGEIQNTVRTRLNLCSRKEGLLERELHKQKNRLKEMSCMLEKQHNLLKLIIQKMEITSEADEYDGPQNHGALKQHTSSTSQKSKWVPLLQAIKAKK
Assay: FLIPR calcium signaling assay in zTRPA1b-transfected HEK293 cells
Format: cell-based
Conditions: agonist calcium influx, zTRPA1b-transfected HEK293; read-out: EC50 (potency in µM)
Catalogue of compounds with associated EC50
experimental-endpoint: EC50 (µM)

>>> print(df.to_string())
                                 compound  readout_value
0  CC(C)CN1C(=O)/C(=C/C(=O)O)c2cccc(F)c21             99
1  C=CCN=C=S [AITC, allyl isothiocyanate]           35.4

###

Target: mouse TRPA1 (mTRPA1) (Mus musculus, UniProt Q8BLA8)
Construct: host or cells: HEK293 (ATCC CRL-1573), transient transfection
Sequence (Q8BLA8 whole entry): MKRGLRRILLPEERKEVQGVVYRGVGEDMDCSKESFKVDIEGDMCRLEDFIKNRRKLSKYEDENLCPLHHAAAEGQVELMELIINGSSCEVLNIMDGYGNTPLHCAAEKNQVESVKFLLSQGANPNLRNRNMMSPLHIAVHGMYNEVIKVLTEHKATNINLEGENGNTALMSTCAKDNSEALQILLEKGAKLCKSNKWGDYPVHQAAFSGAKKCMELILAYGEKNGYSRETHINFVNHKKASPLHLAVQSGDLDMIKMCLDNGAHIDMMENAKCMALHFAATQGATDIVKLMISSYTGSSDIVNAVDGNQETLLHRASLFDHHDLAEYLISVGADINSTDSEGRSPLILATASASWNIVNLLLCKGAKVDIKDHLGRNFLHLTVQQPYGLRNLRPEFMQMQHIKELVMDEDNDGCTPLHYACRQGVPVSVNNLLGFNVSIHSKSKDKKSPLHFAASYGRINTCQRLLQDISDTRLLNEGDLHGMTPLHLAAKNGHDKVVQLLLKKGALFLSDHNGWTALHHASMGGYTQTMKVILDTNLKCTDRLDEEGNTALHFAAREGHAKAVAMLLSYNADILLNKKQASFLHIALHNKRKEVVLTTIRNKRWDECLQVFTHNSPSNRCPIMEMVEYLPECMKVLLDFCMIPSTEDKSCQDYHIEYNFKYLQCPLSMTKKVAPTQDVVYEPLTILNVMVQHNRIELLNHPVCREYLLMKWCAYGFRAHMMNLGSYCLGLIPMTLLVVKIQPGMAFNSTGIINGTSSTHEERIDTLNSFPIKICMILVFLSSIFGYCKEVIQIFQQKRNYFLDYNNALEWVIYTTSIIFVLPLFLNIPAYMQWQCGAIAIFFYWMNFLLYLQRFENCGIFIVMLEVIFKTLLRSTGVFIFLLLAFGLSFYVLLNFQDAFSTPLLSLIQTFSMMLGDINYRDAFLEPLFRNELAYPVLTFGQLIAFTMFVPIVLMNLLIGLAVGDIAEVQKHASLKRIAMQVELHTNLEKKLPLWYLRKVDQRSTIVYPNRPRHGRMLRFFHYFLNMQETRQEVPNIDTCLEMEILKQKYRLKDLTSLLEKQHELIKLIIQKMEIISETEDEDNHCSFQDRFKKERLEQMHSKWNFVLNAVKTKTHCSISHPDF
Test: FLIPR calcium signaling assay in mTRPA1-transfected HEK293 cells
Format: cell-based
Details: agonist calcium influx, AUC of RFU, mTRPA1-transfected HEK293; read-out: EC50 (potency in µM)
experimental-endpoint: EC50

>>> df
                                   molecule  experimental_endpoint  readout_value
0  CC(C)CN1C(=O)/C(=C/C(=O)O)c2cccc(F)c21 [ASP7663]                   EC50         6.8 µM
1    C=CCN=C=S [AITC, allyl isothiocyanate]                   EC50         5.8 µM
